Measured growth, listed per entry for reference.
System: U251 CNS
Experiment: NCI-60 one-dose screen, 48 h (100 = growth as untreated, 0 = no growth, -100 = all killed)
Conditions: 10 µM
Procedure: Growth inhibition of the U251 human tumor cell line is measured as a screen for anti-cancer activity. Cells are grown in 96 well plates and exposed to the test compound for 48 hours. Compounds are tested at a single concentration, which is 10^-5 M for most compounds. The reported endpoint is percent growth (GI% or GIPRCNT), where numbers from 0 - 100% represent growth inhibition, and numbers from -100% - 0 represent cell death. For example, a value of 40 represents 60% growth inhibition. […]
This is part of a sample that, as a whole, favours compounds with a hit. Of some 83,000 tested, about 20% had one in any assay.
MEASURED PROPERTY: growth (%)

O=C(Nc1cccc(NC(=O)Nc2cc(C(F)(F)F)ccc2Cl)c1)Nc1cc(C(F)(F)F)ccc1Cl ... -17.2
Nc1ccc(N=Nc2ccc(S(=O)(=O)O)cc2)c2ccccc12 ... 98.9
COc1ccc2c(c1)CCc1c-2n[nH]c1-c1[nH]nc2c1CCc1cc(OC)ccc1-2 ... 54.2
C/C(=C\c1cc(Cl)ccc1OCC(=O)O)[N+](=O)[O-] ... 102
CCCCC(CC)COC(C)=O (stereo unspecified) ... 99.6
NC(=O)NC(=O)c1ccc(Cl)cc1 ... 106
